This section presents compounds with their documented EC50 values.
SYSTEM_TESTED: Sting protein (Homo sapiens, UniProt Q86WV6, G230A/H232R/R293Q/R71H)
Construct: endogenous in cells; host or cells: THP1 cells (Shanghai Cell Bank)
Sequence (Q86WV6 whole entry R71H/G230A/H232R/R293Q): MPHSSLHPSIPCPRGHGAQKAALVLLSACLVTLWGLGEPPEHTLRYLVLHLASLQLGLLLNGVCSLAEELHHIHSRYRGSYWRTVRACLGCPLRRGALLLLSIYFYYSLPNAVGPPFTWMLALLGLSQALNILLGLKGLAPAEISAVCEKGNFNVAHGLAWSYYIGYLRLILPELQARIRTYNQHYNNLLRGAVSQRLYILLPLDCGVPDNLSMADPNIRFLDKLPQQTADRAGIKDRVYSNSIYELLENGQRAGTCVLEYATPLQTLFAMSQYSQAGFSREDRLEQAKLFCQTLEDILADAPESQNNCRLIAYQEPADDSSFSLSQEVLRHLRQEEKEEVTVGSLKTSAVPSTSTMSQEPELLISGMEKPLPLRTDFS
PROTOCOL_DETAILS: Agonistic function test on Sting protein: IFN-β and CXCL10 (IP10) cytokines produced by THP1 cells (ELISA)
Format: cell-based
PROTOCOL_CONDITIONS: 18 hours, ELISA of supernatant, read-out: IFN-β EC50

sample_smiles=CCc1nc(C)sc1C(=O)Nc1nc2cc(C(N)=O)cc(OC)c2n1C/C=C/Cn1c(NC(=O)c2cc(C)nn2CC)nc2cc(C(N)=O)cc(OCCCN3CCN(C4CC4)CC3)c21 readout_label=EC50 obs_value="10 to 100 nM"
sample_smiles=CCc1nc(C)sc1C(=O)Nc1nc2cc(C(N)=O)cc(OC)c2n1C/C=C/Cn1c(NC(=O)c2c(F)c(C)nn2CC)nc2cc(C(N)=O)cc(OCCCN3CCOCC3)c21 readout_label=EC50 obs_value="100 to 1000 nM"
sample_smiles=CCc1nc(C)sc1C(=O)Nc1nc2cc(C(N)=O)cc(OCCCN3CCN(C4CC4)CC3)c2n1C/C=C/Cn1c(NC(=O)c2cc(C)nn2CC)nc2cc(C(N)=O)cc(OC)c21 readout_label=EC50 obs_value="100 to 1000 nM"

Exercise: Recorded EC50 of CCc1nc(C)sc1C(=O)Nc1nc2cc(C(N)=O)cc(OCCCN3CCOCC3)c2n1C/C=C/Cn1c(NC(=O)c2cc(C)nn2CC)nc2cc(C(N)=O)cc(OC)c21 , please.
Solution: 100 to 1000 nM

Exercise: Look up EC50 for this compound: CCc1nc(C)sc1C(=O)Nc1nc2cc(C(N)=O)cc(OCCCN3CCN(C(=O)OC)CC3)c2n1C/C=C/Cn1c(NC(=O)c2cc(C)nn2CC)nc2cc(C(N)=O)cc(SC)c21
Solution: 10 to 100 nM

* * *

# pEC50 per entry
SYSTEM_TESTED: Sting protein (Homo sapiens, UniProt Q86WV6, G230A/H232R/R293Q/R71H)
Construct: endogenous in cells; host or cells: THP1 cells (Shanghai Cell Bank)
PROTOCOL_DETAILS: Agonistic function test on Sting protein: IFN-β and CXCL10 (IP10) cytokines produced by THP1 cells (ELISA)
Type: cell-based
PROTOCOL_CONDITIONS: 18 hours, ELISA of supernatant, read-out: IP10 EC50
pEC50: −log10 of the molar value.

sample_smiles=CCc1nc(C)sc1C(=O)Nc1nc2cc(C(N)=O)cc(SC)c2n1C/C=C/Cn1c(NC(=O)c2c(F)c(C)nn2CC)nc2cc(C(N)=O)cc(OCCCN3CCOCC3)c21 obs_value="> 8.00"

Exercise: Notebook entry, Sting protein (Homo sapiens, UniProt Q86WV6, G230A/H232R/R293Q/R71H) assay: pEC50 of CCc1nc(C)sc1C(=O)Nc1nc2cc(C(N)=O)cc(SC)c2n1C/C=C/Cn1c(NC(=O)c2cc(C)nn2CC)nc2cc(C(N)=O)cc(OCCCN3CCN(CC)CC3)c21 = ?
Solution: 7.00 to 8.00

Exercise: Fill in the recorded pEC50 for this compound, with Sting protein (Homo sapiens, UniProt Q86WV6, G230A/H232R/R293Q/R71H) as test system: CCc1nc(C)sc1C(=O)Nc1nc2cc(C(N)=O)cc(OC)c2n1C/C=C/Cn1c(NC(=O)c2cc(C)nn2CC)nc2cc(C(N)=O)cc(OCCCN3CCN(C)CC3)c21
Solution: 6.00 to 7.00

Exercise: For Sting protein (Homo sapiens, UniProt Q86WV6, G230A/H232R/R293Q/R71H), provide pEC50 of CCc1nc(C)sc1C(=O)Nc1nc2cc(C(N)=O)cc(OCCCN3CCOCC3)c2n1C/C=C/Cn1c(NC(=O)c2c(F)c(C)nn2CC)nc2cc(C(N)=O)cc(OC)c21 please.
Solution: 7.00 to 8.00

Exercise: Recall the recorded pEC50 for CCc1nc(C)sc1C(=O)Nc1nc2cc(C(N)=O)cc(OCCCN3CCN(C4CC4)CC3)c2n1C/C=C/Cn1c(NC(=O)c2cc(C)nn2CC)nc2cc(C(N)=O)cc(SC)c21 with Sting protein (Homo sapiens, UniProt Q86WV6, G230A/H232R/R293Q/R71H) and state it.
Solution: > 8.00

* * *

Measured pEC50, listed per entry.
SYSTEM_TESTED: Sting protein (Homo sapiens, UniProt Q86WV6, G230A/H232R/R293Q/R71H)
Construct: endogenous in cells; host or cells: THP1 cells (Shanghai Cell Bank)
PROTOCOL_DETAILS: Agonistic function test on Sting protein: IFN-β and CXCL10 (IP10) cytokines produced by THP1 cells (ELISA)
Assay type: cell-based
PROTOCOL_CONDITIONS: 18 hours, ELISA of supernatant, read-out: IP10 EC50
pEC50: −log10 of the molar value.

Answered examples (4):
sample_smiles=CCc1nc(C)sc1C(=O)Nc1nc2cc(C(N)=O)cc(OCCCN3CCN(C)CC3)c2n1C/C=C/Cn1c(NC(=O)c2cc(C)nn2CC)nc2cc(C(N)=O)cc(OC)c21 readout_label=pEC50 obs_value="6.00 to 7.00"
sample_smiles=CCc1nc(C)sc1C(=O)Nc1nc2cc(C(N)=O)cc(OC)c2n1C/C=C/Cn1c(NC(=O)c2sc(C)nc2CC)nc2cc(C(N)=O)cc(OCCCN3CCOCC3)c21 readout_label=pEC50 obs_value="7.00 to 8.00"
sample_smiles=CCc1nc(C)sc1C(=O)Nc1nc2cc(C(N)=O)cc(OCCCN3CCOCC3)c2n1C/C=C/Cn1c(NC(=O)c2sc(C)nc2CC)nc2cc(C(N)=O)cc(SC)c21 readout_label=pEC50 obs_value="7.00 to 8.00"
sample_smiles=CCc1nc(C)sc1C(=O)Nc1nc2cc(C(N)=O)cc(OC)c2n1C/C=C/Cn1c(NC(=O)c2cc(C)nn2CC)nc2cc(C(N)=O)cc(OCCCN3CCN(CC)CC3)c21 readout_label=pEC50 obs_value="7.00 to 8.00"

Alright, here's another molecule for you.
Exercise: Need pEC50, item CCc1nc(C)sc1C(=O)Nc1nc2cc(C(N)=O)cc(OCCCN3CCN(CC)CC3)c2n1C/C=C/Cn1c(NC(=O)c2cc(C)nn2CC)nc2cc(C(N)=O)cc(OC)c21
Solution: 7.00 to 8.00

Numbers sourced from patent US20220119379A1.
